test: Cytotoxicity against mouse NIH/3T3 cells assessed as cell proliferation after 24 hrs by CCK-8 assay; type: cell-based; settings: NIH3T3, 24 h
pIC50: −log10 of the molar value.
Each entry below carries its reported pIC50.

See these solved cases before continuing.
| sample_smiles | pIC50 |
| --- | --- |
| C/C(=C\c1cc(-c2ccc(C#N)cc2)cs1)C(N)=O | < 4.30 |
| C/C(=C\c1cc(-c2ccc(F)cc2)cs1)C(N)=O | < 4.30 |

Query block: Please indicate pIC50 recorded for C/C(=C\c1cc(C2=CCCC2)co1)C(N)=O
Result block: 4.31

Query block: Please indicate pIC50 recorded for C/C(=C\c1nc(-c2ccc(C)cc2)cs1)C(N)=O
Result block: < 4.30

FYI, the data here is from ChEMBL document CHEMBL3785086.
